Values from patent US20250115577A1

Tgt: BCL-xL (Homo sapiens (Human), UniProt Q07817)
Sequence (Q07817 whole entry): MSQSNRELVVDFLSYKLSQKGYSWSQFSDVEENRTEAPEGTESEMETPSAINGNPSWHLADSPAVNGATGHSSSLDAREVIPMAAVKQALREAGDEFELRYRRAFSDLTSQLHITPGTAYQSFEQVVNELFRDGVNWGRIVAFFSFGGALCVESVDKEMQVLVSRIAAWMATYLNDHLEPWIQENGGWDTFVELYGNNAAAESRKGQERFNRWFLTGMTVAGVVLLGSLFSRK
Assay method text: BCL-xL TR-FRET Assay (primary PPI inhibition)
Type: binding
Measurement context: 60 min incubation, read-out: BCLxL IC50
pIC50: −log10 of the molar value.
Measure: pIC50

The following compounds have reported results that may help.
Query :: Please list pIC50 recorded for the compound COc1ccccc1CN(C(=O)c1cc(-c2cc(C#N)ccc2C(=O)N2Cc3ccccc3C[C@H]2CN2CCOCC2)n(C)c1C)c1ccc(O)cc1
Result :: ≥ 5.70

Query :: Please list pIC50 recorded for the compound COc1cccc(CN(C(=O)c2cc(-c3c(C)cc(Cl)cc3C(=O)N3Cc4ccccc4C[C@H]3CN3CCOCC3)n(C)c2C)c2ccc(O)cc2)c1C
Result :: 5.30 to 5.70

Query :: Please list pIC50 recorded for the compound COc1cccc(CN(C(=O)c2cc(-c3cc(Cl)c(C#N)cc3C(=O)N3Cc4ccccc4C[C@H]3CN3CCOCC3)n(C)c2C)c2ccc(O)cc2)c1C
Result :: 5.30 to 5.70

Query :: Please list pIC50 recorded for the compound Cc1c(C(=O)N(Cc2ccccc2C#N)c2ccc(O)cc2)cc(-c2cc(Cl)ccc2C(=O)N2Cc3ccccc3C[C@H]2CN2CCOCC2)n1C
Result :: ≥ 5.70

Query :: Please list pIC50 recorded for the compound COc1cc(C(=O)N2Cc3ccccc3C[C@H]2CN2CCOCC2)c(-c2cc(C(=O)N(Cc3cccc(OC)c3C)c3ccc(O)cc3)c(C)n2C)cc1Cl
Result :: 5.30 to 5.70

***
Query :: Please list pIC50 recorded for the compound Cc1c(C(=O)N(Cc2ccccc2C#N)c2ccc(O)cc2)cc(-c2cc(F)c(F)cc2C(=O)N2Cc3ccccc3C[C@H]2CN2CCOCC2)n1C
Result :: 5.30 to 5.70

Query :: Please list pIC50 recorded for the compound COc1cccc(CN(C(=O)c2cc(-c3cc(Cl)ccc3C(=O)N3Cc4ccccc4C[C@H]3CN3CCOCC3)n3c2CCCC3)c2ccc(O)cc2)c1C
Result :: < 5.30

====

Reported values: pIC50 for BCL-xL (Homo sapiens (Human), UniProt Q07817), one per item.
pIC50: −log10 of the molar value.

Query :: Please list pIC50 recorded for the compound Cc1c(C(=O)N(Cc2ccccc2C#N)c2ccc(O)cc2)cc(-c2cc([N+](=O)[O-])ccc2C(=O)N2Cc3ccccc3C[C@H]2CN2CCOCC2)n1C [Compound 62]
Result :: < 5.30

***
Query :: Please list pIC50 recorded for the compound COc1cccc(CN(C(=O)c2cc(-c3cc(Cl)c(F)cc3C(=O)N3Cc4ccccc4C[C@H]3CN3CCOCC3)n(C)c2C)c2ccc(C#N)cc2)c1C [Compound 73]
Result :: 5.30 to 5.70

Query :: Please list pIC50 recorded for the compound COc1cccc(CN(C(=O)c2cc(-c3cc(F)c(OC(F)F)cc3C(=O)N3Cc4ccccc4C[C@H]3CN3CCOCC3)n(C)c2C)c2ccc(Cl)cc2)c1C [Compound 26]
Result :: 5.30 to 5.70

====

Reported values: pIC50 for BCL-2 (Homo sapiens (Human), UniProt P10415), one per item.
pIC50: −log10 of the molar value.

Query :: Please list pIC50 recorded for the molecule COc1cccc(CN(C(=O)c2cc(-c3ccc(OC(F)F)cc3C(=O)N3Cc4ccccc4C[C@H]3CN3CCOCC3)n(C)c2C)c2ccc(Cl)cc2)c1C
Result :: < 7.30

Query :: Please list pIC50 recorded for the molecule COc1cccc(CN(C(=O)c2cc(-c3cc(Cl)ccc3C(=O)N3Cc4ccccc4C[C@H]3CN3CCOCC3)n3c2CCCC3)c2ccc(Cl)cc2)c1C
Result :: 7.30 to 8.00

Query :: Please list pIC50 recorded for the molecule COc1cccc(CN(C(=O)c2cc(-c3cc(Cl)c(OC(F)F)cc3C(=O)N3Cc4ccccc4C[C@H]3CN3CCOCC3)n(C)c2C)c2ccc(C#N)cc2)c1C
Result :: < 7.30

Query :: Please list pIC50 recorded for the molecule COc1cccc(CN(C(=O)c2cc(-c3cc(C(F)F)c(Cl)cc3C(=O)N3Cc4ccccc4C[C@H]3CN3CCOCC3)n(C)c2C)c2ccc(O)cc2)c1C
Result :: ≥ 8.30

Query :: Please list pIC50 recorded for the molecule Cc1c(C(=O)N(Cc2ccccc2C#N)c2ccc3[nH]ncc3c2)cc(-c2cc(Cl)ccc2C(=O)N2Cc3ccccc3C[C@H]2CN2CCOCC2)n1C
Result :: 7.30 to 8.00

***
Query :: Please list pIC50 recorded for the molecule COc1cccc(CN(C(=O)c2cc(-c3ccc(OC(F)F)cc3C(=O)N3Cc4ccccc4C[C@H]3CN3CCOCC3)n(C)c2C)c2ccc(O)cc2)c1C
Result :: 8.00 to 8.30

Query :: Please list pIC50 recorded for the molecule Cc1c(C(=O)N(Cc2ccccc2C#N)c2ccc(O)cc2)cc(-c2cc([N+](=O)[O-])ccc2C(=O)N2Cc3ccccc3C[C@H]2CN2CCOCC2)n1C
Result :: ≥ 8.30

Query :: Please list pIC50 recorded for the molecule COc1cccc(CN(C(=O)c2cc(-c3cc(Cl)ccc3C(=O)N3Cc4ccccc4C[C@H]3CN3CCOCC3)n(C)c2C)c2ccc(O)cc2)c1C
Result :: ≥ 8.30

Query :: Please list pIC50 recorded for the molecule COc1cccc(CN(C(=O)c2cc(-c3cc(F)c(F)cc3C(=O)N3Cc4ccccc4C[C@H]3CN3CCOCC3)n(C)c2C)c2ccc(O)cc2)c1C
Result :: 7.30 to 8.00

Query :: Please list pIC50 recorded for the molecule COc1cc(C(=O)N2Cc3ccccc3C[C@H]2CN2CCOCC2)c(-c2cc(C(=O)N(Cc3cccc(OC)c3C)c3ccc(O)cc3)c(C)n2C)cc1Cl
Result :: 7.30 to 8.00

Query :: Please list pIC50 recorded for the molecule COc1cc(C(=O)N2Cc3ccccc3C[C@H]2CN2CCOCC2)c(-c2cc(C(=O)N(Cc3cccc(OC)c3C)c3ccc(O)cc3)c(C)n2C)cc1F
Result :: 7.30 to 8.00

Query :: Please list pIC50 recorded for the molecule COc1cccc(CN(C(=O)c2cc(-c3cc(S(C)(=O)=O)ccc3C(=O)N3Cc4ccccc4C[C@H]3CN3CCOCC3)n(C)c2C)c2ccc(O)cc2)c1C
Result :: ≥ 8.30

Query :: Please list pIC50 recorded for the molecule COc1cccc(CN(C(=O)c2cc(-c3cc(C(N)=O)ccc3C(=O)N3Cc4ccccc4C[C@H]3CN3CCOCC3)n(C)c2C)c2ccc(O)cc2)c1C
Result :: ≥ 8.30

Query :: Please list pIC50 recorded for the molecule COc1cc(-c2cc(C(=O)N(Cc3ccccc3OC)c3ccc(Cl)cc3)c(C)n2C)c(C(=O)N2Cc3ccccc3C[C@H]2CN2CCOCC2)cc1C#N
Result :: < 7.30

Query :: Please list pIC50 recorded for the molecule N#Cc1ccccc1CN(C(=O)c1cc(-c2cc(Cl)ccc2C(=O)N2Cc3ccccc3C[C@H]2CN2CCOCC2)n2c1CCCC2)c1ccc(O)cc1
Result :: ≥ 8.30

Query :: Please list pIC50 recorded for the molecule COc1cccc(CN(C(=O)c2cc(-c3cc(Cl)c(OC(F)F)cc3C(=O)N3Cc4ccccc4C[C@H]3CN3CCOCC3)n(C)c2C)c2ccc(Cl)cc2)c1C
Result :: < 7.30

====

Tgt: BCL-2 [G101V] (Homo sapiens (Human), UniProt P10415, G101V)
Assay method text: BCL-2 [G101V] TR-FRET Assay (primary PPI inhibition)
Measurement context: 60 min incubation, read-out: BCL2[G101V] IC50
Protocol: Example C. BCL-2 [G101V]TR-FRET Assay The following assay concentrations and times were used: 0.22 ng/μl of BCL-2 (SinoBiological, #10195-H08E1), 5 μL of 1:100 anti-His Tb-labeled donor, 5 μL of 1:100 Dye-labeled acceptor, 5 μL of 1:40 BCL-2 Peptide Ligand (BPS Bioscience, #50223), and 2 μL of 200× test compound, with 60 min incubation time (final concentration of DMSO 0.5%). […]
pIC50: −log10 of the molar value.
pIC50 by entry:

The following compounds have reported results that may help.
Query :: Fill in: pIC50 on BCL-2 [G101V] (Homo sapiens (Human), UniProt P10415, G101V), entry COc1ccccc1CN(C(=O)c1cc(-c2cc(F)ccc2C(=O)N2Cc3ccccc3C[C@H]2CN2CCOCC2)n(C)c1C)c1ccc(O)cc1 [Compound 54]
Result :: ≥ 7.00

Query :: Fill in: pIC50 on BCL-2 [G101V] (Homo sapiens (Human), UniProt P10415, G101V), entry N#Cc1ccccc1CN(C(=O)c1cc(-c2cc(Cl)ccc2C(=O)N2Cc3ccccc3C[C@H]2CN2CCOCC2)n2c1CCCC2)c1ccc(O)cc1 [Compound 3]
Result :: ≥ 7.00

Let us move to another entry and its pIC50.
Query :: Fill in: pIC50 on BCL-2 [G101V] (Homo sapiens (Human), UniProt P10415, G101V), entry Cc1c(C(=O)N(Cc2ccccc2C#N)c2ccc(O)cc2)cc(-c2cc(Cl)ccc2C(=O)N2Cc3ccccc3C[C@H]2CN2CCOCC2)n1C [Compound 6]
Result :: ≥ 7.00
